Below, each of the compounds is paired with its reported red/green cell ratio (normalised) value.
- Measurement notes: differential killing of epithelial or mesenchymal cells, primary screen, imaging, PC-3E GFP, TEM4-18 mCherry, co-culture (AID 1345086);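 also: normalised mesenchymal count divided by normalised epithelial count so high means epithelial killing; cells exposed to compound for 72 h before imaging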
- Condition context: imaging cell counts, at 1 µM, actives lie on both sides, counts scaled to control wells, 1 = unselective

# Compound, red/green cell ratio (normalised)
rows = [
    ("CC(=O)Oc1cc(C)c2c(c1C(OC(C)=O)OC(C)=O)Oc1c(c(C)c(OC(C)=O)c3c1C(OC(C)=O)OC3=O)OC2=O (stereo not drawn)", 0.89),
    ("CC(=O)[C@@]12O[C@](C)(c3ccccc3)O[C@@H]1CC1C3CCC4=CC(=O)CC[C@]4(C)C3CC[C@@]12C (stereo partly drawn)", 1.21),
    ("O=C(/C=C/c1ccccc1)c1ccc(O)cc1O", 0.95),
]
